Test system: 485368-065-R4-J2-PDC spheroids with HUVEC/MSC, viability;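 note: spheroids exposed to compounds for seven days before readout; 100% = DMSO vehicle control wells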
method_description: Anticancer human tumor 485368-065-R4-J2-PDC patient-derived pancreatic carcinoma cell line growth inhibition [TAK]
protocol_conditions: second compound 9.49 µM; first compound 0.00316 µM; hits give low values
reported_endpoint: viability, T/C (%)
State the answer as a number, implicitly in %.

// known answers, use as guide
CC(C)CC(NC(=O)CNC(=O)c1cc(Cl)ccc1Cl)B1OC(=O)CC(CC(=O)O)(C(=O)O)O1 (stereo not given) + CC(C)NCC(C(=O)N1CCN(c2ncnc3c2C(C)CC3O)CC1)c1ccc(Cl)cc1 : 89.5
COC1CC2CCC(C)C(O)(O2)C(=O)C(=O)N2CCCCC2C(=O)OC(C(C)CC2CCC(OCCO)C(OC)C2)CC(=O)C(C)C=C(C)C(O)C(OC)C(=O)C(C)CC(C)C=CC=CC=C1C (stereo not given) + CC(C)NCC(C(=O)N1CCN(c2ncnc3c2C(C)CC3O)CC1)c1ccc(Cl)cc1 : 69
CC(C)n1nc(-c2ccc3oc(N)nc3c2)c2c(N)ncnc21 + CC(C)NCC(C(=O)N1CCN(c2ncnc3c2C(C)CC3O)CC1)c1ccc(Cl)cc1 : 75.2
CC(C)CC(NC(=O)C(Cc1ccccc1)NC(=O)c1cnccn1)B(O)O (stereo not given) + CC(C)NCC(C(=O)N1CCN(c2ncnc3c2C(C)CC3O)CC1)c1ccc(Cl)cc1 : 79.7

Moving on to another compound below.
stdin: Could you please provide reported viability, T/C for COc1c(OCCCN2CCOCC2)ccc2c3n(c(=NC(=O)c4cnc(N)nc4)nc12)CCN3 + CC(C)NCC(C(=O)N1CCN(c2ncnc3c2C(C)CC3O)CC1)c1ccc(Cl)cc1 ? Thanks!
stdout: 81
